Give measured Tmax for each item. Keep answers brief.
assayName: Clinical Study #2: plasma pharmacokinetics of dextromethorphan, dextrorphan and quinidine, single and multiple dose
cond: human, in vivo, Tmax (plasma), mean, Day 4; PM; 30 mg DM HBr/25 mg Q sulfate capsule every 12 hours
Write the answer as a number in h, unit excluded.

Ask: # input compound: COc1ccc2c(c1)[C@]13CCCCC1[C@H](C2)N(C)CC3 (single isomer, unassigned; (+)) [Dextromethorphan, (+)-3-methoxy-N-methylmorphinan] ; wanted: its Tmax
Result: 6

Ask: Next entry: `CN1CC[C@@]23CCCC[C@@H]2[C@@H]1Cc1ccc(O)cc13`
Result: 2

###

assayName: Clinical Study #2: plasma pharmacokinetics of dextromethorphan, dextrorphan and quinidine, single and multiple dose
cond: human, in vivo, T ½ el (plasma), mean, Day 8; EM; 30 mg DM HBr/25 mg Q sulfate capsule every 12 hours
measuredMetric: half-life (h)
Answer in h, number only, no unit symbol.

Ask: // returns reported half-life for input COc1ccc2c(c1)[C@]13CCCCC1[C@H](C2)N(C)CC3 (single isomer, unassigned; (+)) [Dextromethorphan, (+)-3-methoxy-N-methylmorphinan]
Result: 13.1

###

assayName: Clinical Study #2: plasma pharmacokinetics of dextromethorphan, dextrorphan and quinidine, single and multiple dose
cond: human, in vivo, Tmax (plasma), mean, Day 8; PM; 30 mg DM HBr/25 mg Q sulfate capsule every 12 hours
measuredMetric: Tmax (h)
# number only, unit h dropped from output

Ask: Name the recorded Tmax for COc1ccc2c(c1)[C@]13CCCCC1[C@H](C2)N(C)CC3 (single isomer, unassigned; (+)) [Dextromethorphan, (+)-3-methoxy-N-methylmorphinan] .
Result: 4.99

Ask: Would you mind doing `CN1CC[C@@]23CCCC[C@@H]2[C@@H]1Cc1ccc(O)cc13` as well?
Result: 2.99

###

assayName: Clinical Study #2: plasma pharmacokinetics of dextromethorphan, dextrorphan and quinidine, single and multiple dose
cond: human, in vivo, Cmax (plasma), mean, Day 8; All Subjects; 30 mg DM HBr/25 mg Q sulfate capsule every 12 hours
measuredMetric: Cmax (ng/mL)
Use ng/mL as the unit, but write only the number.

Ask: Quick one: Cmax for `CN1CC[C@@]23CCCC[C@@H]2[C@@H]1Cc1ccc(O)cc13` ?
Result: 108

Ask: Next molecule up: COc1ccc2c(c1)[C@]13CCCCC1[C@H](C2)N(C)CC3 (single isomer, unassigned; (+)) [Dextromethorphan, (+)-3-methoxy-N-methylmorphinan]
Result: 105

###

assayName: Clinical Study #2: plasma pharmacokinetics of dextromethorphan, dextrorphan and quinidine, single and multiple dose
cond: human, in vivo, Tmax (plasma), mean, Day 8; EM; 30 mg DM HBr/25 mg Q sulfate capsule every 12 hours
measuredMetric: Tmax (h)
Just the number please, in h, no unit attached.

Ask: Look up Tmax for this compound: CN1CC[C@@]23CCCC[C@@H]2[C@@H]1Cc1ccc(O)cc13 [Dextrorphan, dextrorphan]
Result: 41.2

Ask: What would you report for COc1ccc2c(c1)[C@]13CCCCC1[C@H](C2)N(C)CC3 (single isomer, unassigned; (+)) [Dextromethorphan, (+)-3-methoxy-N-methylmorphinan] ?
Result: 5.99

###

assayName: Clinical Study #2: plasma pharmacokinetics of dextromethorphan, dextrorphan and quinidine, single and multiple dose
cond: human, in vivo, Cmax (plasma), mean, Day 4; EM; 30 mg DM HBr/25 mg Q sulfate capsule every 12 hours
Please respond with reported Cmax for every item in the list.
A number alone suffices; assume ng/mL.

Ask: GET /values?readout=Cmax&item= `CN1CC[C@@]23CCCC[C@@H]2[C@@H]1Cc1ccc(O)cc13`
Result: 79.3

Ask: What about COc1ccc2c(c1)[C@]13CCCCC1[C@H](C2)N(C)CC3 (single isomer, unassigned; (+)) [Dextromethorphan, (+)-3-methoxy-N-methylmorphinan] ?
Result: 76.7

###

assayName: Clinical Study #2: plasma pharmacokinetics of dextromethorphan, dextrorphan and quinidine, single and multiple dose
cond: human, in vivo, AUC (0-12) (plasma), mean, Day 8; EM; 30 mg DM HBr/25 mg Q sulfate capsule every 12 hours
measuredMetric: AUC(0-t) (ng·h/mL)
Field: numeric (ng·h/mL). Do not append units.

Ask: Record request: AUC(0-t) value, item COc1ccc2c(c1)[C@]13CCCCC1[C@H](C2)N(C)CC3 (single isomer, unassigned; (+)) [Dextromethorphan, (+)-3-methoxy-N-methylmorphinan]
Result: 1050

Ask: Item: `CN1CC[C@@]23CCCC[C@@H]2[C@@H]1Cc1ccc(O)cc13`
Result: 1000

###

assayName: Clinical Study #2: plasma pharmacokinetics of dextromethorphan, dextrorphan and quinidine, single and multiple dose
cond: human, in vivo, Tmax (plasma), mean, Day 4; All Subjects; 30 mg DM HBr/25 mg Q sulfate capsule every 12 hours
measuredMetric: Tmax (h)
API: value field is a number in h; no unit string.

Ask: Return reported Tmax; argument: CN1CC[C@@]23CCCC[C@@H]2[C@@H]1Cc1ccc(O)cc13 [Dextrorphan, dextrorphan]
Result: 2.17

Ask: And then COc1ccc2c(c1)[C@]13CCCCC1[C@H](C2)N(C)CC3 (single isomer, unassigned; (+)) [Dextromethorphan, (+)-3-methoxy-N-methylmorphinan] , what is it?
Result: 5.55

###

assayName: Clinical Study #2: plasma pharmacokinetics of dextromethorphan, dextrorphan and quinidine, single and multiple dose
cond: human, in vivo, Tmax (plasma), mean, Day 1; PM; 30 mg DM HBr/25 mg Q sulfate capsule every 12 hours
measuredMetric: Tmax (h)
# unit: h | format: bare number

Ask: What does the data say about its Tmax? Entry: `CN1CC[C@@]23CCCC[C@@H]2[C@@H]1Cc1ccc(O)cc13`
Result: 3

Ask: Also COc1ccc2c(c1)[C@]13CCCCC1[C@H](C2)N(C)CC3 (single isomer, unassigned; (+)) [Dextromethorphan, (+)-3-methoxy-N-methylmorphinan] , if possible.
Result: 8

###

assayName: Clinical Study #2: plasma pharmacokinetics of dextromethorphan, dextrorphan and quinidine, single and multiple dose
cond: human, in vivo, Cmax (plasma), mean, Day 8; PM; 30 mg DM HBr/25 mg Q sulfate capsule every 12 hours
measuredMetric: Cmax (ng/mL)
A number alone suffices; assume ng/mL.

Ask: Quick check: Cmax of `CN1CC[C@@]23CCCC[C@@H]2[C@@H]1Cc1ccc(O)cc13` ?
Result: 51.5

Ask: Then this compound: COc1ccc2c(c1)[C@]13CCCCC1[C@H](C2)N(C)CC3 (single isomer, unassigned; (+)) [Dextromethorphan, (+)-3-methoxy-N-methylmorphinan]
Result: 136

###

assayName: Clinical Study #2: plasma pharmacokinetics of dextromethorphan, dextrorphan and quinidine, single and multiple dose
cond: human, in vivo, Cmax (plasma), mean, Day 1; PM; 30 mg DM HBr/25 mg Q sulfate capsule every 12 hours
measuredMetric: Cmax (ng/mL)
Field format: number, assumed ng/mL, no unit text.

Ask: So what's the measured Cmax for this one? `CN1CC[C@@]23CCCC[C@@H]2[C@@H]1Cc1ccc(O)cc13`
Result: 10.8

Ask: Record: COc1ccc2c(c1)[C@]13CCCCC1[C@H](C2)N(C)CC3 (single isomer, unassigned; (+)) [Dextromethorphan, (+)-3-methoxy-N-methylmorphinan]
Result: 22.3

###

assayName: Clinical Study #2: plasma pharmacokinetics of dextromethorphan, dextrorphan and quinidine, single and multiple dose
cond: human, in vivo, Cmax (plasma), mean, Day 4; PM; 30 mg DM HBr/25 mg Q sulfate capsule every 12 hours
Please go through the items and note down their Cmax.
Value expressed in ng/mL; do not type the unit.

Ask: # lookup: Cmax of COc1ccc2c(c1)[C@]13CCCCC1[C@H](C2)N(C)CC3 (single isomer, unassigned; (+)) [Dextromethorphan, (+)-3-methoxy-N-methylmorphinan]
Result: 106

Ask: Continue with `CN1CC[C@@]23CCCC[C@@H]2[C@@H]1Cc1ccc(O)cc13`
Result: 37

###

assayName: Clinical Study #2: plasma pharmacokinetics of dextromethorphan, dextrorphan and quinidine, single and multiple dose
cond: human, in vivo, T ½ el (plasma), mean, Day 8; All Subjects; 30 mg DM HBr/25 mg Q sulfate capsule every 12 hours
Experimental: Descriptive statistics for each parameter, including mean, median, standard deviation, coefficient of variation, N, minimum, and maximum were calculated for all of the subjects by Day. In addition, descriptive statistics were presented by the subgroups: extensive metabolizer (EM) and poor metabolizer (PM). The ANOVA model included the factors group (EM or PM), subject within group, day, and the interaction term day by group. […]
measuredMetric: half-life (h)
Numeric answer only, unit h assumed.

Ask: Query: half-life; subject: COc1ccc2c(c1)[C@]13CCCCC1[C@H](C2)N(C)CC3 (single isomer, unassigned; (+)) [Dextromethorphan, (+)-3-methoxy-N-methylmorphinan]
Result: 20.3

###

assayName: Clinical Study #2: plasma pharmacokinetics of dextromethorphan, dextrorphan and quinidine, single and multiple dose
cond: human, in vivo, AUC (0-12) (plasma), mean, Day 8; All Subjects; 30 mg DM HBr/25 mg Q sulfate capsule every 12 hours
measuredMetric: AUC(0-t) (ng·h/mL)
The reply should be a number in ng·h/mL, with the unit left off.

Ask: # query: AUC(0-t) of entry `CN1CC[C@@]23CCCC[C@@H]2[C@@H]1Cc1ccc(O)cc13`
Result: 896

Ask: Okay, and COc1ccc2c(c1)[C@]13CCCCC1[C@H](C2)N(C)CC3 (single isomer, unassigned; (+)) [Dextromethorphan, (+)-3-methoxy-N-methylmorphinan] ?
Result: 1160

Just for reference, patent US20130072517A1 is where these values come from.
